src = the NIST ThermoML archive (doi:10.1021/je1000582)

Test: activity coefficient (dimensionless); of the first substance listed, at infinite dilution; xn = mol fraction of the nth substance listed
Conditions: 328.15 K; 101 kPa; Liquid; Chromatography; x1 = 0
// bucketize activity coefficient: L (below 2), M (2 to below 10), H (10 or more)

>>> cat("C=CCCC [1-pentene] + CCCC[n+]1cccc(C)c1.O=S(=O)([O-])C(F)(F)F")
"M"

# bin label for Cc1ccc(C)cc1 [1,4-dimethylbenzene] + CCCC[n+]1cccc(C)c1.O=S(=O)([O-])C(F)(F)F M

Also CCO [ethanol] + CCCC[n+]1cccc(C)c1.O=S(=O)([O-])C(F)(F)F ? L

Now the same for CC(C)=O [acetone] + CCCC[n+]1cccc(C)c1.O=S(=O)([O-])C(F)(F)F L

What do we get for c1ccsc1 [thiophene] + CCCC[n+]1cccc(C)c1.O=S(=O)([O-])C(F)(F)F ? L
